Biological target: T1, EsCas13d, nuclease-dead (Eubacterium siraeum, UniProt B0MS50, R295A;H300A;R849A;H854A)
T1 sequence: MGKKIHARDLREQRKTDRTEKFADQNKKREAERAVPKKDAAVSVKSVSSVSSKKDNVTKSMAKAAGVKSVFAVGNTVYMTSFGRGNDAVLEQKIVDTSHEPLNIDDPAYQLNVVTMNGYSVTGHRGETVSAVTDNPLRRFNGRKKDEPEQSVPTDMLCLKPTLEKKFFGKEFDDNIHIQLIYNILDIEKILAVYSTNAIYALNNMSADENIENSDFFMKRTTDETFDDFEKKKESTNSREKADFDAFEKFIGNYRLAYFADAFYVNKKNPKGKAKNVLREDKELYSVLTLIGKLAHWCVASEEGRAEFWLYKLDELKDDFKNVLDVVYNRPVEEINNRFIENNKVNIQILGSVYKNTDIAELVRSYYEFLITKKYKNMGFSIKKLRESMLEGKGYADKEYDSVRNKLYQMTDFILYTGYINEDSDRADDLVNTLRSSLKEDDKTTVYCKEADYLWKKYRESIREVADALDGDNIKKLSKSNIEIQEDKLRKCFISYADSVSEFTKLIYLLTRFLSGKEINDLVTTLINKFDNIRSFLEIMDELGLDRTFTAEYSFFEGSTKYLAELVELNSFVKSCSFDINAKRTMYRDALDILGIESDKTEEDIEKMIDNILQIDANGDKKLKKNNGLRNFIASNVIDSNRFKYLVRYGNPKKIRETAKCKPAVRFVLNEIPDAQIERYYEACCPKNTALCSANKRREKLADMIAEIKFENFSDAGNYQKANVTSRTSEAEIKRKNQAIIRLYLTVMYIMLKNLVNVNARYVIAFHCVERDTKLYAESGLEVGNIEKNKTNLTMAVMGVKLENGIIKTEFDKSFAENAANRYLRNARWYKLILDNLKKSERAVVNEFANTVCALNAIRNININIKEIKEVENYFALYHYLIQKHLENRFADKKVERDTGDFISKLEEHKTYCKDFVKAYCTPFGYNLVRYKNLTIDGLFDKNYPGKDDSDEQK
Experiment: crRNA (strand 1, pre-loaded); Mg2+; 40 mM Tris-HCl pH 7.5, 150 mM NaCl, 6 mM MgCl2, 1 mM DTT, 0.1% Tween-20, 0.2 mg/ml BSA; 25 C; 10 min per concentration, then washed
Details: tags: His6-TwinStrep-SUMO cleaved; N-terminal SNAP kept (SNAP-Surface 488); label: 3' end held by stalled T7 RNA polymerase
# reported Kd; entries follow
State the result as a value with its unit after it.

Some entries whose results are on file:
- Binder: "target 1 insA 3' of 19,insC 3' of 11 (mixed) RNA 1: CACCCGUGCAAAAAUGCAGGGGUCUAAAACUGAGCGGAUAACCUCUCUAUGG RNA 2: GGGAAUGGAUCCACAUCUACGAAUUCGUACCAUAAGAGAGGUCUAUCCGCUCACCGAGAUCGGAAGAGCACACGU"
  Kd: "100 nM"
- Binder: "target 1 G12A,C22A (mixed) RNA 1: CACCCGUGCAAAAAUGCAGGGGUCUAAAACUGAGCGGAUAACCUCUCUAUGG RNA 2: GGGAAUGGAUCCACAUCUACGAAUUCGUAACAUAGAGAGAUUAUCCGCUCACCGAGAUCGGAAGAGCACACGU"
  Kd: "13 nM"
- Binder: "target 3 U7A,A9G (mixed) RNA 1: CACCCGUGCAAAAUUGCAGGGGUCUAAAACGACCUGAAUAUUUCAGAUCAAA RNA 2: GGGAAUGGAUCCACAUCUACGAAUUCGUUUUUGAUCUGAAAUGUACAGGUCUGCAGAUCGGAAGAGCACACGU"
  Kd: "97 nM"
- Binder: "target 1 MT 5'PFS CCA 3'PFS CAG (mixed) RNA 1: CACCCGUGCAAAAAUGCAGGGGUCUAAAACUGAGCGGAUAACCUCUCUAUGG RNA 2: GGGAAUGGAUCCACAUCUACGAAUUCCCACCAUAGAGAGGUUAUCCGCUCACAGAGAUCGGAAGAGCACACGU"
  Kd: "4.25 nM"
- Binder: "target 2 MT 5'PFS GGU 3'PFS ACA (mixed) RNA 1: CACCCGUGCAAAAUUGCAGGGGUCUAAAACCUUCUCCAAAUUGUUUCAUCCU RNA 2: GGGAAUGGAUCCACAUCUACGAAUUCGGUAGGAUGAAACAAUUUGGAGAAGACAAGAUCGGAAGAGCACACGU"
  Kd: "13.4 nM"
- Binder: "target 1 MT 5'PFS UAA 3'PFS ACU (mixed) RNA 1: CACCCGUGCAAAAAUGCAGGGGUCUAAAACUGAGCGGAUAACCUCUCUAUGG RNA 2: GGGAAUGGAUCCACAUCUACGAAUUCUAACCAUAGAGAGGUUAUCCGCUCAACUAGAUCGGAAGAGCACACGU"
  Kd: "29 nM"
- Binder: "target 1 MT 5'PFS CUG 3'PFS ACC (mixed) RNA 1: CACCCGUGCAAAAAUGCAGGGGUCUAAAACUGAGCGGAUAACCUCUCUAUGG RNA 2: GGGAAUGGAUCCACAUCUACGAAUUCCUGCCAUAGAGAGGUUAUCCGCUCAACCAGAUCGGAAGAGCACACGU"
  Kd: "6.1 nM"

Exercise: Fill in reported Kd for this entry: target 2 MT 5'PFS GUA 3'PFS UCA (mixed) RNA 1: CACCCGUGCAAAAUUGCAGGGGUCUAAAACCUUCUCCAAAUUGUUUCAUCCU RNA 2: GGGAAUGGAUCCACAUCUACGAAUUCGUAAGGAUGAAACAAUUUGGAGAAGUCAAGAUCGGAAGAGCACACGU
Key: 10.3 nM
